Kindly supply the reported activity values for the records listed here.
Biological target: Nicotinamide N-methyltransferase (Homo sapiens)
Assay: Confirmatory Screen for Target Class Profiling of Small Molecule Inhibitors of Methyltransferases (AID 1745852)
Settings: MTase-Glo luminescence, SAH detection, recombinant enzyme; measured here: NNMT max response; stronger effect = lower value
Give the value; after it, write the unit.

compound	activity
O=C(c1cc(O)c(O)c([N+](=O)[O-])c1)c1ccccc1F	-15.6%
COC1=C(OC)C(=O)c2ccccc2C1=O	-23.6%
CC(C)(C=O)Cc1cc(C(C)(C)C)c(O)c(C(C)(C)C)c1	-8.99%
OCC1O[C@H]([S-])[C@H](O)[C@@H](O)[C@@H]1O.[Au+] (stereo partly specified)	-21.4%
CN1CCc2cccc3c2C1Cc1ccc(O)c(O)c1-3 (stereo unspecified)	0.623%

Okay, here is my list. What is activity for each of these?
1. COc1ccc(/C=C2\COc3ccc(C)cc3C2=O)cc1O
2. CCOC(=O)N1CCN(/[N+]([O-])=N/Oc2ccc([N+](=O)[O-])cc2[N+](=O)[O-])CC1
3. Oc1cc(O)cc(/C=C/c2ccc(O)c(O)c2)c1
4. Fc1ccc(C(OCCCc2cnc[nH]2)c2ccc(F)cc2)cc1

Reply:
1. -20.1%
2. -19%
3. -18.4%
4. -23.2%

Lab note: each compound below needs its activity filled in.
1. COc1cc(OC)c(/C=C2/C(=O)Nc3ccccc32)c(OC)c1
2. O=Nc1ccc2oc(=O)ccc2c1

Reply:
-28.2%
-0.856%
